- testedOn: BMP-2-inducible protein kinase [38-345,K320A,K321A] (Human, UniProt Q9NSY1, K320A/K321A)
- Construct: 38-345
- Sequence (Q9NSY1 38-345 K320A/K321A): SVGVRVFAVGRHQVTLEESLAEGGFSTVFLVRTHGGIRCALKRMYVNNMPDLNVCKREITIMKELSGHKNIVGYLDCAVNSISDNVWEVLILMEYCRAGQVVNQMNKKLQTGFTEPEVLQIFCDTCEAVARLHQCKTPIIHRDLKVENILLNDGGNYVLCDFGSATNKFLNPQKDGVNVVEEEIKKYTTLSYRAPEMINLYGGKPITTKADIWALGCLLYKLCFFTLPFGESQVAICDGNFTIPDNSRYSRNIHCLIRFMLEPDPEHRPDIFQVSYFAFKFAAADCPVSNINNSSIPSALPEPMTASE
- protocolNotes: BIKE pSENs Assay
readoutKind: IC50

smilesString: CN(CCN1C[C@@H](OC(=O)N2CCN(c3ccn4ncc(-c5cccnc5OC5CC5)c4n3)CC2)CC1=O)C(=O)OC(C)(C)C
readoutKind: IC50
dataValue: > 1500 nM

----------
- testedOn: Cyclin-G-associated kinase [25-335] (Human)
- Sequence (O14976 whole entry): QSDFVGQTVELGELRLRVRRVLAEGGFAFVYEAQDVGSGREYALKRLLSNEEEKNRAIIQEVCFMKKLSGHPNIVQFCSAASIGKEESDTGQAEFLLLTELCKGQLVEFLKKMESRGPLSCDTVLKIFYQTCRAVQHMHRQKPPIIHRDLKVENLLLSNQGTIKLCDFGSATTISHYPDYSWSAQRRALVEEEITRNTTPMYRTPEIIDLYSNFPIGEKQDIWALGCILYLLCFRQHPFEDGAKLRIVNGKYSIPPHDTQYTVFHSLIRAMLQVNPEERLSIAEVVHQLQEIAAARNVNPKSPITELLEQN
pIC50: −log10 of the molar value.

smilesString: CN(CCN1C[C@@H](OC(=O)N2CCN(c3ccn4ncc(-c5cccnc5OC5CC5)c4n3)CC2)CC1=O)C(=O)OC(C)(C)C
testedOn: Cyclin-G-associated kinase [25-335] (Human)
pIC50: < 5.82
